Target: T1, huNotch2-EGF6-10 (human, UniProt Q04721 219-418)
T1 construct: also called human Notch2 EGF6-10
T1 sequence: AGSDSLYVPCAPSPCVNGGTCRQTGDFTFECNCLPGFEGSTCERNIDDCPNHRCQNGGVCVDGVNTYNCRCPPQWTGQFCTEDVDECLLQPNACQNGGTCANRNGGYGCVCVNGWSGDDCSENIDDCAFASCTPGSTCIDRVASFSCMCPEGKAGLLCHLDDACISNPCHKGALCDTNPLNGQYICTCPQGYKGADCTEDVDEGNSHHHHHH
Assay procedure: SPR BIAcore, separate experiment, substantially as for Table 4

[
  {
    "Binder": "hu.3107.L7H15 (antibody, V domains shown, also called hu.Notch-3107.L7H15) VH: EVQLVQSGAEVKKPGESLKISCKGSGYTFSNYVIHWVRQMPGKGPEWTGYIIPGSGGTKFNEKFKGQATISVDKSITTAYLQWSSLKASDTAMYYCARDGAGSFTYWGQGTLVTVSS VL: DIVMTQSPDSLAVSLGERATINCRSSQSLVHSDGNTYLHWYQQKPGQPPKLLIYRISNRFSGVPDRFSGSGSGTDFTLTISSLQAEDVAVYYCLQSTHFPDTFGGGTKVEIK",
    "koff [s⁻¹]": 0.00407
  },
  {
    "Binder": "hu.3107.L1H14 (antibody, V domains shown, also called hu.Notch-3107.L1H14) VH: EVQLVQSGAEVKKPGESLKISCKGSGYTFSNYVIHWVRQMPGKGPEWTGYIIPGSGGTKFNEKFKGQATISVDKSSTTAYLQWSSLKASDTAMYYCARDGAGSFTYWGQGTLVTVSS VL: DVVMTQSPLSLPVTLGQPASISCRSSQSLVHSDGNTYLHWFQQRPGQSPRLLIYRISNRFSGVPDRFSGSGSGTDFTLKISRVEAEDVGVYYCLQSTHFPDTFGGGTKVEIK",
    "koff [s⁻¹]": 0.00631
  },
  {
    "Binder": "hu.3107.L1H15 (antibody, V domains shown, also called hu.Notch-3107.L1H15) VH: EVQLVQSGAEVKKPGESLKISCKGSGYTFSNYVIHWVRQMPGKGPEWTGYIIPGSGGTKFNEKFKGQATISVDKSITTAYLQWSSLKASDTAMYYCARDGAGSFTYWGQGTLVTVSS VL: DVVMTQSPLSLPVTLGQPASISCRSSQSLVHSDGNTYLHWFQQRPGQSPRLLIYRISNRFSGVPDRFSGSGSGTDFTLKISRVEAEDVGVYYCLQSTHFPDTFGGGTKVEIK",
    "koff [s⁻¹]": 0.00634
  }
]
